Attribute: pIC50
# target.of.assay: H3255 (EGFR L858R) (Homo sapiens, UniProt P00533, L858R)
# Sequence (P00533 25-1210 L858R): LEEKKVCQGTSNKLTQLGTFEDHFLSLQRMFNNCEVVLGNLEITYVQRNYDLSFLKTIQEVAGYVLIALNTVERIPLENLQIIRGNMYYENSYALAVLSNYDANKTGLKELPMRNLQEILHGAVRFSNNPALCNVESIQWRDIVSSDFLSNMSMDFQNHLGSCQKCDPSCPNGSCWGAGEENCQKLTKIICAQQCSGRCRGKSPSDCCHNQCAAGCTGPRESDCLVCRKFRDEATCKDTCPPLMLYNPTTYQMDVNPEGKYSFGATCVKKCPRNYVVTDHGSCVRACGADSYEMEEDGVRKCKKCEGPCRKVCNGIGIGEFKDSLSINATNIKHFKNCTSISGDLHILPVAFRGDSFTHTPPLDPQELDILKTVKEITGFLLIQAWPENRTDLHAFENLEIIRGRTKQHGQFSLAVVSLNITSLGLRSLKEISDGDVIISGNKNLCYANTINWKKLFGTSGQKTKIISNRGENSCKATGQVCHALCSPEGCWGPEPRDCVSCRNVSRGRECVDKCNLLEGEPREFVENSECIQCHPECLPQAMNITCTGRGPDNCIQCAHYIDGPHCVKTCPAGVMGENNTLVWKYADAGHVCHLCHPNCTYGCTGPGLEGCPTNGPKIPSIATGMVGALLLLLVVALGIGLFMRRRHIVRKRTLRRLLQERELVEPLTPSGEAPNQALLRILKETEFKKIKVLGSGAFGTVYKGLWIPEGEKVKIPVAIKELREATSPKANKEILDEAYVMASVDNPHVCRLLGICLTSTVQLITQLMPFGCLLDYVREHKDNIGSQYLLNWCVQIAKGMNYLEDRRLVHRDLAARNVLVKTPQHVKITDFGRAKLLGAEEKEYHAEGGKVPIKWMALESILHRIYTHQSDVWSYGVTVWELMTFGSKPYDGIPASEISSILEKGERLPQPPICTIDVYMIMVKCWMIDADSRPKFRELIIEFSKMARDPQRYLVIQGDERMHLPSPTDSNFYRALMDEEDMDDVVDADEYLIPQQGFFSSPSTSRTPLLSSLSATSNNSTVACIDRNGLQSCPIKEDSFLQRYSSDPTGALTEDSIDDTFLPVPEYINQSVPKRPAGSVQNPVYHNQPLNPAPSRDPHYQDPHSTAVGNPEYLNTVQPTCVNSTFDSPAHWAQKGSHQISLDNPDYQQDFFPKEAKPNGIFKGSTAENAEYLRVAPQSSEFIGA
# procedure.details: EGFR target modulation in H3255 cell line (phospho-EGFR Y1173 ELISA)
# Experimental: EGFR Target Modulation in H1975, H3255 and HCC827 Cell Lines Tissue Culture. Cells were maintained in 10% FBS/RPMI supplemented with 100 μg/ml Penicillin/Streptomycin (Hyclone #SH30236.01). […] The cells were allowed to incubate overnight in a 37° C., 5% CO2 humidified tissue culture incubator. […] Signal was read on EnVision plate reader using built-in UltraLUM setting. […] With these parameters, the IC50's for each compound in each cell line was calculated using non-linear curve fitting analysis.
pIC50: −log10 of the molar value.
parameter.measured: pIC50

>>> result("Cc1cc(C(=O)Nc2nc3cccc(C)c3n2[C@@H]2CCCCN(C(=O)/C=C/CN(C)C)C2)cc(C)n1")
7.92
>>> result("Cc1cc(C(=O)Nc2nc3cccc(C)c3n2[C@@H]2CCCCN(C(=O)/C=C/CN3CC[C@@H](F)C3)C2)ccn1")
7.89
>>> result("COc1cncc(C(=O)Nc2nc3cccc(C)c3n2[C@@H]2CCCCN(C(=O)/C=C/CN(C)C)C2)c1")
8.15
>>> result("Cc1cc(C(=O)Nc2nc3cccc(Cl)c3n2[C@@H]2CCCCN(C(=O)/C=C/CN3CC[C@@H](F)C3)C2)ccn1")
8.15

* * *

# target.of.assay: EGFR(L858R/T790M) (Homo sapiens, UniProt P00533, L858R/T790M)
# Construct: purchased from Carna (GST-a.a. 669-1210)
# Sequence (P00533 669-1210 T790M/L858R): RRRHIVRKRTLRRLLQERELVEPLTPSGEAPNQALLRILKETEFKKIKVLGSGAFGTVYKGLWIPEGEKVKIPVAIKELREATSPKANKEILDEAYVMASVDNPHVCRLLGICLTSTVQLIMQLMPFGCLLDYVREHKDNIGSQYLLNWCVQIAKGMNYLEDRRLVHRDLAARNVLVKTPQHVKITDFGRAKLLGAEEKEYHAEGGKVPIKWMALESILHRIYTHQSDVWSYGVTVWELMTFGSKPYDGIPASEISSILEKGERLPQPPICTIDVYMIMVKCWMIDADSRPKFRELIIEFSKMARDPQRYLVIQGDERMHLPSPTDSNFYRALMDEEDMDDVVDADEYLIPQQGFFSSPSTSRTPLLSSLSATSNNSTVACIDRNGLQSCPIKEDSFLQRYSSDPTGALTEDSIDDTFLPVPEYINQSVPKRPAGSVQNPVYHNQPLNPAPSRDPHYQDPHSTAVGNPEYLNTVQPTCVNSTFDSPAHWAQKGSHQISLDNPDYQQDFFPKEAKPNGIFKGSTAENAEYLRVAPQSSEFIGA
# procedure.details: EGFR biochemical assay (HTRF), IC50 determinations
# run.parameters: EGFR (L858R/T790M) with no pre-incubation; read-out: IC50 (μM) Column A
parameter.measured: IC50

>>> result("C=CC(=O)N1CCC[C@@H](n2c(NC(=O)c3ccnc(C)c3)nc3cccc(C)c32)C1")
"0.025 µM"
>>> result("C=CC(=O)N1CCCCC(n2c(NC(=O)c3ccccc3)nc3cccc(C(=O)NCCC(=O)OC)c32)C1 (centres unmarked)")
"0.93 µM"
>>> result("C=CC(=O)N1CCC[C@@H](n2c(NC(=O)c3cccc(C(F)(F)F)c3)nc3cc(CN4CCCCC4)ccc32)C1")
"0.68 µM"
>>> result("C=CC(=O)N1CCC[C@@H](n2c(NC(=O)c3cccc(C(F)(F)F)c3)nc3cc(COCCOC)ccc32)C1")
"0.2 µM"
>>> result("Cc1cc(C(=O)Nc2nc3cccc(C(F)(F)F)c3n2[C@@H]2CCCCN(C(=O)/C=C/CN(C)C)C2)cc(C)n1")
"0.04 µM"

* * *

Attribute: IC50
# target.of.assay: human EGFR WT (NIH/3T3 cells, EGF-induced) (Homo sapiens, UniProt P00533)
# Sequence (P00533 25-1210): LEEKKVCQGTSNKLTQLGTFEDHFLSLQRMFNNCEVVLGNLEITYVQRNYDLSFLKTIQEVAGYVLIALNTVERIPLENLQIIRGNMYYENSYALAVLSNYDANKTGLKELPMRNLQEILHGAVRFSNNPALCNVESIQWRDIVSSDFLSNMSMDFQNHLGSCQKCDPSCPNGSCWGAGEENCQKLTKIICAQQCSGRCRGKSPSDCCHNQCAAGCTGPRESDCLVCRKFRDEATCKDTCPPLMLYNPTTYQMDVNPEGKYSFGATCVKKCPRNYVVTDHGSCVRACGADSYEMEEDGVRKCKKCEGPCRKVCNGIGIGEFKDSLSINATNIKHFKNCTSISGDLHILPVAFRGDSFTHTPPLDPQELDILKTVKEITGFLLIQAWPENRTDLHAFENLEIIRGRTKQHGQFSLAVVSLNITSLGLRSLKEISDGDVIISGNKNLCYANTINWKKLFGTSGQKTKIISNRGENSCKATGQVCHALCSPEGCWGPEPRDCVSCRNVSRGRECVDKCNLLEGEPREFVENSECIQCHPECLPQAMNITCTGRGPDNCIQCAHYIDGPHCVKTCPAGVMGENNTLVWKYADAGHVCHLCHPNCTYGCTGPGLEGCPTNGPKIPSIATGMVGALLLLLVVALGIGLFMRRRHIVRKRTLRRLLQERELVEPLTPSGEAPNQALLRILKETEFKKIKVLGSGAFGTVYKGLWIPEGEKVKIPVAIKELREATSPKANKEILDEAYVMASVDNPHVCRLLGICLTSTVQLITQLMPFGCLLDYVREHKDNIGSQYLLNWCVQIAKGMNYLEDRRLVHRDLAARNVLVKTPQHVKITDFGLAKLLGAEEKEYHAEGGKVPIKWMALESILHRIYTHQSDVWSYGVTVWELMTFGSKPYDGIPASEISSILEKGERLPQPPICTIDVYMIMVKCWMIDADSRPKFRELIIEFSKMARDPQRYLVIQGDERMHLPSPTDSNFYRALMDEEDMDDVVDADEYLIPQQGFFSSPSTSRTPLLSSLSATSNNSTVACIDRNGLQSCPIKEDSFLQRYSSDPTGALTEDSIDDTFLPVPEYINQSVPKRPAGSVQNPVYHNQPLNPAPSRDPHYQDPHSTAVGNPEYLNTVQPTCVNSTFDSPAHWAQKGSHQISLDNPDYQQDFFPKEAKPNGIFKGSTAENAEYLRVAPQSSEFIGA
# procedure.details: EGFR target modulation in engineered NIH/3T3 cell lines (phospho-EGFR Y1068 AlphaLISA), EGFR WT
# Assay type: cell-based
# run.parameters: engineered NIH/3T3 cells, read-out: NIH3T3 IC50 (μM) EGFR (WT)
parameter.measured: IC50 (µM)

>>> result("Cc1cc(C(=O)Nc2nc3cccc(C)c3n2[C@@H]2CCCCN(C(=O)/C=C/CN(C)C)C2)cc(Cl)n1")
0.076
>>> result("COc1cccc(C(=O)Nc2nc3cccc(C)c3n2C2CCCCN(C(=O)/C=C/CN(C)C)C2)c1 (stereo not drawn)")
0.39
>>> result("Cc1cccc2nc(NC(=O)c3ccccc3F)n(C3CCCCN(C(=O)/C=C/CN(C)C)C3)c12 (stereo not drawn)")
0.86
>>> result("Cc1cc(C(=O)Nc2nc3cccc(Cl)c3n2[C@@H]2CCCCN(C(=O)/C=C/CN3CC[C@H](O)C3)C2)ccn1")
0.89
>>> result("Cc1cncc(C(=O)Nc2nc3cccc(C)c3n2[C@@H]2CCCCN(C(=O)/C=C/CN(C)C)C2)c1")
0.023
>>> result("C=CC(=O)N1CCCC[C@@H](n2c(NC(=O)c3ccnc(C)c3)nc3cc(CN4CC[C@H](OC)C4)cc(C)c32)C1")
0.015
>>> result("Cc1cccc2nc(NC(=O)c3ccn4cncc4c3)n(C3CCCCN(C(=O)/C=C/CN(C)C)C3)c12 (stereo not drawn)")
0.038
>>> result("Cc1cccc2nc(NC(=O)c3ccc(F)cc3)n(C3CCCCN(C(=O)/C=C/CN(C)C)C3)c12 (stereo not drawn)")
0.139
>>> result("CN(C)C/C=C/C(=O)N1CCCCC(n2c(NC(=O)c3cccc(C(F)(F)F)c3)nc3cc(CO)cc(C#N)c32)C1 (stereo not drawn)")
0.47
>>> result("Cc1cccc2nc(NC(=O)c3ccc(F)cc3F)n(C3CCCCN(C(=O)/C=C/CN(C)C)C3)c12 (stereo not drawn)")
0.283
>>> result("C=CC(=O)N1CCCCC(n2c(NC(=O)c3ccccc3)nc3cccc(C)c32)C1 (stereo not drawn)")
1.54
>>> result("Cc1cccc2nc(NC(=O)c3cncc(C(F)(F)F)c3)n([C@@H]3CCCCN(C(=O)/C=C/CN(C)C)C3)c12")
0.05
>>> result("Cc1cccc2nc(NC(=O)c3ccnc(C(C)(C)C)c3)n(C3CCCCN(C(=O)/C=C/CN(C)C)C3)c12 (stereo not drawn)")
0.011
>>> result("Cc1noc(-c2cccc3nc(NC(=O)c4ccccc4)n(C4COCCN(C(=O)/C=C/CN(C)C)C4)c23)n1 (stereo not drawn)")
5.2
>>> result("Cc1cccc2nc(NC(=O)c3ccnc(Cl)c3)n([C@@H]3CCCCN(C(=O)/C=C/CN(C)C)C3)c12")
0.016
